Target: PAD2 (Homo sapiens, UniProt Q9Y2J8)
Construct: made in house
Sequence (Q9Y2J8 whole entry): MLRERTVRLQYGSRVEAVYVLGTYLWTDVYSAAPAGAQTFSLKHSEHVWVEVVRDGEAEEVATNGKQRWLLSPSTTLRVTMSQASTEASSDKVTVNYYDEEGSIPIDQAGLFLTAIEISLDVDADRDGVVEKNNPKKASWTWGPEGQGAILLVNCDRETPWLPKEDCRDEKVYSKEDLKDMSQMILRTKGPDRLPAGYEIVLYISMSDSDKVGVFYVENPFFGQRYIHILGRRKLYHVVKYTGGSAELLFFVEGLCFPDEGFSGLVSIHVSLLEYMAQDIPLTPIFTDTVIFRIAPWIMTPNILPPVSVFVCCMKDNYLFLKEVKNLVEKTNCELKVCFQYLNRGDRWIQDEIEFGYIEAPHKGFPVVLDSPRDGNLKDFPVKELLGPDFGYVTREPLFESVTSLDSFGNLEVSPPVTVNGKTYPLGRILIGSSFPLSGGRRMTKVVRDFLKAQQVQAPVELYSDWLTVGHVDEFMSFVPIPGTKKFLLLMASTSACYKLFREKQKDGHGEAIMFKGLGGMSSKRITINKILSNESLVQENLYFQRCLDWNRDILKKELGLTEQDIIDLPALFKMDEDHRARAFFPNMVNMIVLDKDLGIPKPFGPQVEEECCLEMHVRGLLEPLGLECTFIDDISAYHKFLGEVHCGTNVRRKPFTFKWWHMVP
Assay: Inactivation kinetics, PAD2
Assay type: biochemical
Settings: PAD2, table footnote
Hi, to clarify the labels: true covers kinact from 0.05 s⁻¹ upward, false covers anything below 0.05 s⁻¹.

COc1cccc2c1nc([C@H](CCCNC(=N)CF)NC(=O)c1cccc3c1C(=O)NC3)n2C [Compound 7k] | true
COc1ccc2c(c1)nc([C@H](CCCNC(=N)CF)NC(=O)c1cccc3c1C(=O)NC3)n2C [Compound 7o] | false
CCN1Cc2cccc(C(=O)N[C@@H](CCCNC(=N)CF)c3nc4c(OC)cccc4n3CC)c2C1=O [Compound 8u] | false

Query: Determine whether this compound has kinact no lower than 0.05 s⁻¹: CCn1c([C@H](CCCNC(=N)CF)NC(=O)c2cccc3c2C(=O)NC3)nc2ccccc21 [Compound 7e]
Response: false

Query: Determine whether this compound has kinact no lower than 0.05 s⁻¹: COc1cccc2c1nc([C@H](CCCNC(=N)CF)NC(=O)c1cccc3c1C(=O)N(C)C3)n2C [8a′]
Response: false

====

Target: PAD1 (Homo sapiens, UniProt Q9ULC6)
Construct: made in house
Sequence (Q9ULC6 1-663): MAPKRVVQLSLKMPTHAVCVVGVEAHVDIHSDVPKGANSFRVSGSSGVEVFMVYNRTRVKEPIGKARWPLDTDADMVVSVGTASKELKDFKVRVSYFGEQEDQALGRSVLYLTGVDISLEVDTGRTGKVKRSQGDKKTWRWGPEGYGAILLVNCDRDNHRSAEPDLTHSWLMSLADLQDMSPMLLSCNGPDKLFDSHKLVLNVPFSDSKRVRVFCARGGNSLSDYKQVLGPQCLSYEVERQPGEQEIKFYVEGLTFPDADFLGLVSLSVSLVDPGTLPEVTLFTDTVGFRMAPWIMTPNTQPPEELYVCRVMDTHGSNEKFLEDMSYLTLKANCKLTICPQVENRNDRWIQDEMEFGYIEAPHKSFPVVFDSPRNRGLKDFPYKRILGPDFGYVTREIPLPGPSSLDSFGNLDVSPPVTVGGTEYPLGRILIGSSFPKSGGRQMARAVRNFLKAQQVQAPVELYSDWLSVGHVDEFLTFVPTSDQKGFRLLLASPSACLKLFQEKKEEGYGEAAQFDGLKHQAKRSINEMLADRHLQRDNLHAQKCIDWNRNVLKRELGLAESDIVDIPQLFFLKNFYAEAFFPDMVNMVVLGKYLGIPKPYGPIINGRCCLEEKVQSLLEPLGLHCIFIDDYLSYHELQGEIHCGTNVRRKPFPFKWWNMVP
Experiment: Inactivation kinetics, PAD1
Format: biochemical
Details: a: single kobs determined; b: from a linear fit
So I've got a bunch of molecules here, and I need their kinact/KI values.
Answers are plain numbers, in M⁻¹ s⁻¹.

Example results:
CCn1c([C@H](CCCNC(=N)CCl)NC(=O)c2cccc3c2C(=O)NC3)nc2ccccc21 | 2200
CCN1Cc2cccc(C(=O)N[C@@H](CCCNC(=N)CCl)c3nc4cc(OC)ccc4n3C)c2C1=O | 1180
N=C(CF)NCCC[C@H](NC(=O)c1ccccc1C(=O)O)c1nc2ccccc2[nH]1 | 275
CC(C)n1c([C@H](CCCNC(=N)CF)NC(=O)c2ccccc2C(=O)OC(C)(C)C)nc2ccccc21 | 23.7
Cn1c([C@H](CCCNC(=N)CCl)NC(=O)c2ccccc2C(=O)OC(C)(C)C)nc2ccccc21 | 325
N=C(CCl)NCCC[C@H](NC(=O)c1ccccc1)c1nc2ccccc2[nH]1 | 132
CCn1c([C@H](CCCNC(=N)CF)NC(=O)c2cccc3c2C(=O)NC3)nc2cc(OC)ccc21 | 316
COc1ccc2c(c1)nc([C@H](CCCNC(=N)CF)NC(=O)c1cccc3c1C(=O)NC3)n2C | 2080

// switching to the query molecule
Query: Please report the measured kinact/KI for "N=C(CCl)NCCC[C@H](NC(=O)c1ccc2ccccc2c1)c1nc2ccccc2[nH]1"
Response: 46.7

====

Molecular target: PAD1 (Homo sapiens, UniProt Q9ULC6)
Construct: made in house
Sequence (Q9ULC6 1-663): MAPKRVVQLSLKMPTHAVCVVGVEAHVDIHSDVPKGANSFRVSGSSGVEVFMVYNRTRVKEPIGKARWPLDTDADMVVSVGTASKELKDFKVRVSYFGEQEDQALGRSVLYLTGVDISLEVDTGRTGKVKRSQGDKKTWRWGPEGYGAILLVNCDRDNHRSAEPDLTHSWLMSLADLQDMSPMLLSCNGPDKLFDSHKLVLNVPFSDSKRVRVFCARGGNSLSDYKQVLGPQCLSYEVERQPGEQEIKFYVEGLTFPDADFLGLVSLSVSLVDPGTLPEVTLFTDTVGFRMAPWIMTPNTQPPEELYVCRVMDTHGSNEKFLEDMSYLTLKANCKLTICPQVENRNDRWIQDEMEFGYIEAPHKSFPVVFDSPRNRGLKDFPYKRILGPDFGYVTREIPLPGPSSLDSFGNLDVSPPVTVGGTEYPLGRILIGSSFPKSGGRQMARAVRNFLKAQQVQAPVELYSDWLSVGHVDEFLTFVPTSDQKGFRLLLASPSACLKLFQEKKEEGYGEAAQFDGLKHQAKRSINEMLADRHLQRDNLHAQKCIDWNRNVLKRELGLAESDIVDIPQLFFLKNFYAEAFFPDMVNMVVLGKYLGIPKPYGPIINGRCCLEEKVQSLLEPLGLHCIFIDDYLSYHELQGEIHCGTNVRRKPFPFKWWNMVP
Test: Inactivation kinetics, PAD1
Format: biochemical
Details: kinact/KI relative to least inhibited isozyme (1.0)
Hi, to clarify the labels: True covers Fold PAD1 Selectivity from 10 fold upward, False covers anything below 10 fold.

For orientation, consider the following solved cases.
N=C(CF)NCCC[C@H](NC(=O)c1ccc(-c2ccccc2)cc1)c1nc2cc(F)c(F)cc2[nH]1 | False
CCN1Cc2cccc(C(=O)N[C@@H](CCCNC(=N)CCl)c3nc4c(OC)cccc4[nH]3)c2C1=O | False
CCN1Cc2cccc(C(=O)N[C@@H](CCCNC(=N)CCl)c3nc4ccccc4n3C)c2C1=O | True

Query: Determine whether this compound has Fold PAD1 Selectivity no lower than 10 fold: "N=C(CF)NCCC[C@H](NC(=O)c1ccccc1)c1nc2ccccc2[nH]1"
Response: False

====

Biological target: PAD2 (Homo sapiens)
Construct: made in house
Assay: Inactivation kinetics, PAD2
Type: biochemical
Settings: a: single kobs determined; b: from a linear fit; other footnotes: from kinact and KI
So I've got a bunch of compounds here, and I need their kinact/KI values.
Give bare numbers, in M⁻¹ s⁻¹.

Hello, I would appreciate it if you could give kinact/KI for each entry below.
1. N=C(CF)NCCC[C@H](NC(=O)c1ccccc1)c1nc2ccccc2[nH]1
2. Cn1c([C@H](CCCNC(=N)CF)NC(=O)c2ccc(-c3ccccc3)cc2)nc2ccccc21
3. CCn1c([C@H](CCCNC(=N)CF)NC(=O)c2cccc3c2C(=O)NC3)nc2c(OC)cccc21
4. CCN1Cc2cccc(C(=O)N[C@@H](CCCNC(=N)CCl)c3nc4ccccc4n3CC)c2C1=O
5. COc1cccc2c1nc([C@H](CCCNC(=N)CF)NC(=O)c1cccc3c1C(=O)N(C(C)C)C3)n2C
6. CCn1c([C@H](CCCNC(=N)CCl)NC(=O)c2cccc3c2C(=O)NC3)nc2cc(OC)ccc21
7. COc1cccc2c1nc([C@H](CCCNC(=N)CF)NC(=O)c1cccc3c1C(=O)N(C1CC1)C3)n2C
8. COc1cccc2c1nc([C@H](CCCNC(=N)CCl)NC(=O)c1cccc3c1C(=O)N(C(C)C)C3)n2C

Response:
7.92
13.7
845
752
1560
780
1570
853

Hello, I would appreciate it if you could give kinact/KI for each entry below.
1. COc1cccc2c1nc([C@H](CCCNC(=N)CF)NC(=O)c1cccc3c1C(=O)N(C)C3)n2C
2. N=C(CCl)NCCC[C@H](NC(=O)c1ccc2ccccc2c1)c1nc2ccccc2[nH]1

Response:
[3540, 71.2]

Hello, I would appreciate it if you could give kinact/KI for each entry below.
1. Cn1c([C@H](CCCNC(=N)CF)NC(=O)c2ccccc2C(=O)OC(C)(C)C)nc2ccccc21
2. COc1cccc2c1nc([C@H](CCCNC(=N)CF)NC(=O)c1cccc3c1C(=O)NC3)n2C
3. CCN1Cc2cccc(C(=O)N[C@@H](CCCNC(=N)CF)c3nc4c(OC)cccc4n3CC)c2C1=O
4. CCN1Cc2cccc(C(=O)N[C@@H](CCCNC(=N)CCl)c3nc4cc(OC)ccc4[nH]3)c2C1=O
5. CCn1c([C@H](CCCNC(=N)CCl)NC(=O)c2ccccc2C(=O)O)nc2ccccc21
6. CCN1Cc2cccc(C(=O)N[C@@H](CCCNC(=N)CF)c3nc4ccccc4n3CC)c2C1=O

Response:
[40, 3500, 933, 590, 290, 677]

Hello, I would appreciate it if you could give kinact/KI for each entry below.
1. CCN1Cc2cccc(C(=O)N[C@@H](CCCNC(=N)CCl)c3nc4ccccc4[nH]3)c2C1=O
2. N=C(CCl)NCCC[C@H](NC(=O)c1ccc(-c2ccc(F)cc2)cc1)c1nc2ccccc2[nH]1

Response:
1: 888; 2: 91.7
